The measurements presented in this section are drawn from the supplement of paper PMC10307832.

Test system: PC-3 [JPC-3]
Experiment notes: relative viability (nuclei count vs DMSO), 5 days (fraction); higher = more cells survive
Measurement parameters: first compound 0.03162 µM
Recorded relative viability values for a group of molecules are listed next.
Please give the numeric answer without any surrounding text.

NC(=O)Nc1cc(-c2cccc(F)c2)sc1C(=O)N[C@H]1CCCNC1 [AZD7762] + CS(=O)(=O)CCNCc1ccc(-c2ccc3ncnc(Nc4ccc(OCc5cccc(F)c5)c(Cl)c4)c3c2)o1 [Lapatinib] (partner 2 µM) | 0.447
NC(=O)Nc1cc(-c2cccc(F)c2)sc1C(=O)N[C@H]1CCCNC1 [AZD7762] + Cc1nc(NC(=O)N2CCC[C@H]2C(N)=O)sc1-c1ccnc(C(C)(C)C(F)(F)F)c1 [Alpelisib] (partner 2 µM) | 1.03
NC(=O)Nc1cc(-c2cccc(F)c2)sc1C(=O)N[C@H]1CCCNC1 [AZD7762] + COc1cc2c(Oc3ccc(NC(=O)C4(C(=O)Nc5ccc(F)cc5)CC4)cc3F)ccnc2cc1OCCCN1CCOCC1 [Foretinib] (partner 0.25 µM) | 1.06

We now examine a further molecule.
Lab book: relative viability of NC(=O)Nc1cc(-c2cccc(F)c2)sc1C(=O)N[C@H]1CCCNC1 [AZD7762] + Nc1ncn([C@H]2C[C@H](O)[C@@H](CO)O2)c(=O)n1 [Decitabine] (partner 2 µM) noted as 0.869

----------
Tested on: EPLC-272H
Experiment notes: relative viability (nuclei count vs DMSO), 5 days (fraction); higher = more cells survive
Measurement parameters: first compound 1.265 µM
Doc: threshold 0.3 (exclusive). Items with relative viability beneath it return class 1; others return class 0.

O=C(O)c1ccc(-c2c[nH]c3ncc(-c4ccccc4)cc23)cc1C1CCCC1 + O=C(CCCCCCC(=O)Nc1ccccc1)NO [Vorinostat] (partner 1 µM) | class 1
O=C(O)c1ccc(-c2c[nH]c3ncc(-c4ccccc4)cc23)cc1C1CCCC1 + CC(=O)Nc1cccc(-n2c(=O)n(C3CC3)c(=O)c3c(Nc4ccc(I)cc4F)n(C)c(=O)c(C)c32)c1 [Trametinib] (partner 0.02 µM) | class 1

relative viability strictly < 0.3 for this compound? O=C(O)c1ccc(-c2c[nH]c3ncc(-c4ccccc4)cc23)cc1C1CCCC1 + CC(C)C[C@H](NC(=O)[C@H](Cc1ccccc1)NC(=O)c1cnccn1)B(O)O [Bortezomib] (partner 0.002 µM)
class 0

relative viability strictly < 0.3 for this compound? O=C(O)c1ccc(-c2c[nH]c3ncc(-c4ccccc4)cc23)cc1C1CCCC1 + COc1cc2c(Oc3ccc(NC(=O)C4(C(=O)Nc5ccc(F)cc5)CC4)cc3F)ccnc2cc1OCCCN1CCOCC1 [Foretinib] (partner 0.25 µM)
class 1

relative viability strictly < 0.3 for this compound? O=C(O)c1ccc(-c2c[nH]c3ncc(-c4ccccc4)cc23)cc1C1CCCC1 + CS(=O)(=O)N1CCN(Cc2cc3nc(-c4cccc5[nH]ncc45)nc(N4CCOCC4)c3s2)CC1 [Pictilisib] (partner 1 µM)
class 0

----------
Test system: HARA
Experiment notes: relative viability (nuclei count vs DMSO), 5 days (fraction); higher = more cells survive
Measurement parameters: first compound 0.005 µM
Doc: threshold 0.5 (exclusive). Items with relative viability beneath it return MET; others return NOT MET.

CC1(C)CCC(c2ccc(Cl)cc2)=C(CN2CCN(c3ccc(C(=O)NS(=O)(=O)c4ccc(N[C@H](CCN5CCOCC5)CSc5ccccc5)c(S(=O)(=O)C(F)(F)F)c4)cc3)CC2)C1 [Navitoclax] + CCNC(=O)c1noc(-c2cc(C(C)C)c(O)cc2O)c1-c1ccc(CN2CCOCC2)cc1 [Luminespib] (partner 0.01 µM) | NOT MET
CC1(C)CCC(c2ccc(Cl)cc2)=C(CN2CCN(c3ccc(C(=O)NS(=O)(=O)c4ccc(N[C@H](CCN5CCOCC5)CSc5ccccc5)c(S(=O)(=O)C(F)(F)F)c4)cc3)CC2)C1 [Navitoclax] + CC(C)C[C@H](NC(=O)[C@H](Cc1ccccc1)NC(=O)c1cnccn1)B(O)O [Bortezomib] (partner 0.002 µM) | NOT MET
CC1(C)CCC(c2ccc(Cl)cc2)=C(CN2CCN(c3ccc(C(=O)NS(=O)(=O)c4ccc(N[C@H](CCN5CCOCC5)CSc5ccccc5)c(S(=O)(=O)C(F)(F)F)c4)cc3)CC2)C1 [Navitoclax] + Nc1nc2[nH]cc(CCc3ccc(C(=O)N[C@@H](CCC(=O)O)C(=O)O)cc3)c2c(=O)[nH]1 [Pemetrexed] (partner 0.2 µM) | MET

Turning to the following compound.
relative viability strictly < 0.5 for this compound? CC1(C)CCC(c2ccc(Cl)cc2)=C(CN2CCN(c3ccc(C(=O)NS(=O)(=O)c4ccc(N[C@H](CCN5CCOCC5)CSc5ccccc5)c(S(=O)(=O)C(F)(F)F)c4)cc3)CC2)C1 [Navitoclax] + C[C@@H](Oc1cc(-c2cnn(C3CCNCC3)c2)cnc1N)c1c(Cl)ccc(F)c1Cl [Crizotinib] (partner 1 µM)
NOT MET

----------
System: NCI-H1395
Experiment notes: relative viability (nuclei count vs DMSO), 5 days (fraction); higher = more cells survive
Measurement parameters: first compound 0.1581 µM
Recorded relative viability values for a group of compounds are listed next.
Please give the numeric answer without any surrounding text.

Examples from the recorded data:
CC1(C)CCC(c2ccc(Cl)cc2)=C(CN2CCN(c3ccc(C(=O)NS(=O)(=O)c4ccc(N[C@H](CCN5CCOCC5)CSc5ccccc5)c(S(=O)(=O)C(F)(F)F)c4)cc3)CC2)C1 [Navitoclax] + COc1cccc2cc(-c3nc([C@H]4CC[C@H](C(=O)O)CC4)n4ncnc(N)c34)[nH]c12 [OSI-027] (partner 0.5 µM) | 0.569
CC1(C)CCC(c2ccc(Cl)cc2)=C(CN2CCN(c3ccc(C(=O)NS(=O)(=O)c4ccc(N[C@H](CCN5CCOCC5)CSc5ccccc5)c(S(=O)(=O)C(F)(F)F)c4)cc3)CC2)C1 [Navitoclax] + Nc1ncn([C@H]2C[C@H](O)[C@@H](CO)O2)c(=O)n1 [Decitabine] (partner 2 µM) | 0.713

Lab book: relative viability of CC1(C)CCC(c2ccc(Cl)cc2)=C(CN2CCN(c3ccc(C(=O)NS(=O)(=O)c4ccc(N[C@H](CCN5CCOCC5)CSc5ccccc5)c(S(=O)(=O)C(F)(F)F)c4)cc3)CC2)C1 [Navitoclax] + CS(=O)(=O)CCNCc1ccc(-c2ccc3ncnc(Nc4ccc(OCc5cccc(F)c5)c(Cl)c4)c3c2)o1 [Lapatinib] (partner 2 µM) noted as 1.17

----------
System: NCI-H596
Experiment notes: relative viability (nuclei count vs DMSO), 5 days (fraction); higher = more cells survive
Measurement parameters: first compound 0.3162 µM
Measurement kind: relative viability
Please give the numeric answer without any surrounding text.

NC(=O)Nc1cc(-c2cccc(F)c2)sc1C(=O)N[C@H]1CCCNC1 [AZD7762] + COc1cccc2cc(-c3nc([C@H]4CC[C@H](C(=O)O)CC4)n4ncnc(N)c34)[nH]c12 [OSI-027] (partner 0.5 µM) | 0.673
NC(=O)Nc1cc(-c2cccc(F)c2)sc1C(=O)N[C@H]1CCCNC1 [AZD7762] + Nc1ncn([C@H]2C[C@H](O)[C@@H](CO)O2)c(=O)n1 [Decitabine] (partner 2 µM) | 1.1

// relative viability (NCI-H596) for NC(=O)Nc1cc(-c2cccc(F)c2)sc1C(=O)N[C@H]1CCCNC1 [AZD7762] + Cc1cc(Nc2cc(N3CCN(C)CC3)nc(Sc3ccc(NC(=O)C4CC4)cc3)n2)n[nH]1 [Tozasertib] (partner 0.1 µM) = 0.946

// relative viability (NCI-H596) for NC(=O)Nc1cc(-c2cccc(F)c2)sc1C(=O)N[C@H]1CCCNC1 [AZD7762] + CC(=O)Nc1cccc(-n2c(=O)n(C3CC3)c(=O)c3c(Nc4ccc(I)cc4F)n(C)c(=O)c(C)c32)c1 [Trametinib] (partner 0.02 µM) = 0.803

// relative viability (NCI-H596) for NC(=O)Nc1cc(-c2cccc(F)c2)sc1C(=O)N[C@H]1CCCNC1 [AZD7762] + Cc1nc(NC(=O)N2CCC[C@H]2C(N)=O)sc1-c1ccnc(C(C)(C)C(F)(F)F)c1 [Alpelisib] (partner 2 µM) = 0.503

----------
System: NCI-H1355
Experiment notes: relative viability (nuclei count vs DMSO), 5 days (fraction); higher = more cells survive
Measurement parameters: first compound 0.253 µM
Recorded relative viability values for a group of compounds are listed next.
Please give the numeric answer without any surrounding text.

Examples from the recorded data:
C=C1C(=O)O[C@@H](CCCCCCCC)[C@@H]1C(=O)O [C-75] + Cc1cc(Nc2cc(N3CCN(C)CC3)nc(Sc3ccc(NC(=O)C4CC4)cc3)n2)n[nH]1 [Tozasertib] (partner 0.1 µM) | 0.579
Oc1nc(-c2ccc(C(F)(F)F)cc2)nc2c1CSCC2 [XAV939] + Cc1cc(Nc2cc(N3CCN(C)CC3)nc(Sc3ccc(NC(=O)C4CC4)cc3)n2)n[nH]1 [Tozasertib] (partner 0.1 µM) | 0.473
Oc1nc(-c2ccc(C(F)(F)F)cc2)nc2c1CSCC2 [XAV939] + Cc1nc(NC(=O)N2CCC[C@H]2C(N)=O)sc1-c1ccnc(C(C)(C)C(F)(F)F)c1 [Alpelisib] (partner 2 µM) | 0.654
C=C1C(=O)O[C@@H](CCCCCCCC)[C@@H]1C(=O)O [C-75] + C[C@]1(O)C[C@@H](c2nc(-c3ccc4ccc(-c5ccccc5)nc4c3)c3c(N)nccn32)C1 [Linsitinib] (partner 1 µM) | 0.803

We now examine a further compound.
Lab book: relative viability of C=C1C(=O)O[C@@H](CCCCCCCC)[C@@H]1C(=O)O [C-75] + Nc1ncn([C@H]2C[C@H](O)[C@@H](CO)O2)c(=O)n1 [Decitabine] (partner 2 µM) noted as 0.374
